Reference source: ChEMBL document CHEMBL4364301

# System: LNCaP
# methodNotes: Antiproliferative activity against human LNCAP cells assessed as T/C value at 1 x 10^1 uM incubated for 96 hrs by propidium iodide based 2D monolayer assay
# Assay type: functional
Measured T/C by item
propertyMeasured: T/C

[[record]]
compound = "CC(O)(COc1ccccc1C(F)(F)F)C(=O)Nc1ccc(S(F)(F)(F)(F)F)cc1 (racemic)"
assaysystem = "LNCaP"
result = "1 - 2%"

[[record]]
compound = "CNC(=O)c1ccc(N2C(=S)N(c3ccc(C#N)c(C(F)(F)F)c3)C(=O)C2(C)C)cc1F [ENZALUTAMIDE]"
assaysystem = "LNCaP"
result = "57%"

[[record]]
compound = "CC(O)(CSc1cc(C(F)(F)F)cc(C(F)(F)F)c1)C(=O)Nc1cccc(C(F)(F)C(F)(F)F)c1 (racemic)"
assaysystem = "LNCaP"
result = "8%"

[[record]]
compound = "CC(O)(COc1ccc(C(F)(F)C(F)(F)F)cc1)C(=O)Nc1cc(C(F)(F)F)cc(C(F)(F)F)c1 (racemic)"
assaysystem = "LNCaP"
result = "9%"

[[record]]
compound = "CC(O)(COc1cc(C(F)(F)F)cc(C(F)(F)F)c1)C(=O)Nc1ccc(S(F)(F)(F)(F)F)cc1 (racemic)"
assaysystem = "LNCaP"
result = "6%"

[[record]]
compound = "CC1(C)C(=O)N(c2cccc(S(F)(F)(F)(F)F)c2)C(=S)N1c1cccc(C(F)(F)F)c1"
assaysystem = "LNCaP"
result = "23%"

[[record]]
compound = "CC1(C)C(=O)N(c2ccc(C#N)cc2C(F)(F)F)C(=S)N1c1cccc(S(F)(F)(F)(F)F)c1"
assaysystem = "LNCaP"
result = "36%"

[[record]]
compound = "CC(O)(COc1ccc(S(F)(F)(F)(F)F)cc1)C(=O)Nc1cc(C(F)(F)F)cc(C(F)(F)F)c1 (racemic)"
assaysystem = "LNCaP"
result = "8%"

[[record]]
compound = "CC1(C)C(=O)N(c2ccc(C#N)cc2C(F)(F)F)C(=S)N1c1ccc(S(F)(F)(F)(F)F)cc1"
assaysystem = "LNCaP"
result = "12%"

[[record]]
compound = "CC(O)(COc1cccc(S(F)(F)(F)(F)F)c1)C(=O)Nc1ccc([N+](=O)[O-])c(C(F)(F)F)c1 (racemic)"
assaysystem = "LNCaP"
result = "1 - 3%"

[[record]]
compound = "CC(O)(COc1cccc(S(F)(F)(F)(F)F)c1)C(=O)Nc1cc(C(F)(F)F)cc(C(F)(F)F)c1 (racemic)"
assaysystem = "LNCaP"
result = "2%"

[[record]]
compound = "CC(O)(COc1cc(C(F)(F)F)cc(C(F)(F)F)c1)C(=O)Nc1cccc(S(F)(F)(F)(F)F)c1 (racemic)"
assaysystem = "LNCaP"
result = "2%"

